Numbers sourced from patent US20170260183A1.

Assay: logP determination by HPLC on reversed-phase columns (OECD Guideline 117)
Assay type: physicochemical
Conditions: reversed-phase (C18) HPLC column; acidic range, pH 2.7, 0.1% aqueous formic acid and acetonitrile; read-out: logP[a]
ENDPOINT: chromatographic logP
The answer should be a number; do not append a unit.

- MOLECULE: "Cn1cc(-c2cnc3nn(-c4cccnc4)cc3c2)cn1 [Example 8]"
  EXPERIMENTAL RESULT: 1

Please give measured chromatographic logP of the following entry: Cc1ccc(-c2cnc3nn(-c4cccnc4)cc3c2)cc1[S+]([O-])CC(F)(F)F (centres unmarked) [Example 5]
2.07

Please give measured chromatographic logP of the following entry: CC(F)(F)CC(=O)Nc1cnc2nn(-c3cccnc3)cc2c1 [Example 7]
1.22

Please give measured chromatographic logP of the following entry: Cc1ccc(-c2cnc3nn(-c4cccnc4)cc3c2)cc1SCC(F)(F)F [Example 4]
3.14

Please give measured chromatographic logP of the following entry: Cc1cc(F)c(-c2cnc3nn(-c4cccnc4)cc3c2)cc1[S+]([O-])CC(F)(F)F (centres unmarked) [Example 3]
2.14

----------
Entries and their chromatographic logP values follow.
Test: logP determination by HPLC on reversed-phase columns (OECD Guideline 117)
Assay type: physicochemical
Settings: reversed-phase (C18) HPLC column; neutral range, pH 7.8, 0.001 molar aqueous ammonium hydrogencarbonate and acetonitrile; read-out: logP[b]
The answer should be a number; do not append a unit.

# annotated cases, reported chromatographic logP shown
- COMPOUND: "Cc1cc(F)c(-c2cnc3nn(-c4cccnc4)cc3c2)cc1[S+]([O-])CC(F)(F)F (stereo not drawn)"
  chromatographic logP: 2.11
- COMPOUND: "Cn1cc(-c2cnc3nn(-c4cccnc4)cc3c2)cn1"
  chromatographic logP: 1.15
- COMPOUND: "Cc1ccc(-c2cnc3nn(-c4cccnc4)cc3c2)cc1[S+]([O-])CC(F)(F)F (stereo not drawn)"
  chromatographic logP: 2.03

Please give measured chromatographic logP of the following entry: Cc1cc(F)c(-c2cnc3nn(-c4cccnc4)cc3c2)cc1SCC(F)(F)F
3.22

Please give measured chromatographic logP of the following entry: CC(F)(F)CC(=O)Nc1cnc2nn(-c3cccnc3)cc2c1
1.22

Please give measured chromatographic logP of the following entry: CSCCC(=O)N(C)c1cnc2nn(-c3cccnc3)cc2c1
1.2

Please give measured chromatographic logP of the following entry: CC(=O)Nc1cnc2nn(-c3cccnc3)cc2c1
0.54

Please give measured chromatographic logP of the following entry: CSCCC(=O)Nc1cnc2nn(-c3cccnc3)cc2c1
1.21

Please give measured chromatographic logP of the following entry: Cc1ccc(-c2cnc3nn(-c4cccnc4)cc3c2)cc1SCC(F)(F)F
3.1
